Tested on: Human castration resistant prostate cancer cell line 22Rv1
Assay: Cell growth inhibition experiment (CellTiter-Glo), 22Rv1
Type: cell-based
Settings: 22Rv1 cells treated with the compound for 5 days
property.measured: IC50 (nM)

> print(dat)
                                   compound                                 tested.on  property.measured  endpoint.result
1  CNC(=O)Nc1ccc2c(c1)CC[C@@]21OC(=O)N(CC(=O)N(Cc2ccc(F)cc2)[C@@H](C)C(F)(F)F)C1=O [Example A-485, reference compound]  Human castration resistant prostate cancer cell line 22Rv1               IC50              384

---

pIC50: −log10 of the molar value.
Entries below carry reported pIC50 on histone acetyltransferase p300 (Homo sapiens).
property.measured: pIC50

> print(dat)
                                   molecule                                 tested.on  property.measured  comparator  endpoint.result
1  CNC(=O)Nc1ccc2c(c1)CC[C@@]21OC(=O)N(CC(=O)N2Cc3sccc3OC[C@H]2C(F)(F)F)C1=O  histone acetyltransferase p300 (Homo sapiens)              pIC50           =             8.15
2  CNC(=O)Nc1ccc2c(c1)CCC21NC(=O)N(CC(=O)N2Cc3sccc3CC[C@H]2C2CC2)C1=O (some centres unmarked)  histone acetyltransferase p300 (Homo sapiens)              pIC50           >             7.70
3  Cn1cc(-c2cc3c(cn2)C2(CC3)NC(=O)N(CC(=O)N3Cc4cc(F)ccc4OC[C@H]3C(F)(F)F)C2=O)cn1 (some centres unmarked)  histone acetyltransferase p300 (Homo sapiens)              pIC50           >             7.00
4  CNC(=O)Nc1ccc2c(c1)CC[C@]21OC(=O)N(CC(=O)N2Cc3ccccc3CC[C@H]2C(F)(F)F)C1=O  histone acetyltransferase p300 (Homo sapiens)              pIC50           =             8.04
5  Cn1cc(-c2ccc3c(c2)CCC32OC(=O)N(CC(=O)N3Cc4cc(F)ccc4OC[C@H]3C(F)(F)F)C2=O)cn1 (some centres unmarked)  histone acetyltransferase p300 (Homo sapiens)              pIC50           >             7.70

---

# reported IC50; entries follow
Molecular target: histone acetyltransferase p300 (Homo sapiens, UniProt Q09472)
Sequence (Q09472 1284-1673 limits assumed): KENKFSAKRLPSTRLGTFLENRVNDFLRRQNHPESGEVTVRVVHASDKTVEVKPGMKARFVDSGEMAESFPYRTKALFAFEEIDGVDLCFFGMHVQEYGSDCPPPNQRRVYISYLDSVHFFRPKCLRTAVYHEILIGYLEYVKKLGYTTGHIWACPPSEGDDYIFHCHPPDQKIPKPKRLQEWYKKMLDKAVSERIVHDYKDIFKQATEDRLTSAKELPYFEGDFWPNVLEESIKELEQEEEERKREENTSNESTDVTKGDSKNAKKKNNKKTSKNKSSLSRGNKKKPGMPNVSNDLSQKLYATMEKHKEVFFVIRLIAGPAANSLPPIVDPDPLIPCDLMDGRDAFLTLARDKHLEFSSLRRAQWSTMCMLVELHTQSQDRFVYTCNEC
property.measured: IC50

> print(dat)
                                   molecule  endpoint.result
1  Cn1cc(-c2ccc3c(c2)C(F)C[C@]32NC(=O)N(CC(=O)N3Cc4cc(F)ccc4OC[C@H]3C3CC3)C2=O)cn1 (stereo partly drawn) [SYY-B132-2]          < 10 nM
2  CNC(=O)Nc1ccc2c(c1)CCC21NC(=O)N(CC(=O)N2Cc3ccsc3CC[C@H]2C2CC2)C1=O (stereo partly drawn) [SYY-B104]          < 20 nM
3  Cn1cc(-c2ccc3c(c2)CCC32NC(=O)N(CC(=O)N3Cc4ccc(F)cc4CC[C@H]3C3CC3)C2=O)cn1 (stereo partly drawn) [SYY-B043]           < 5 nM
4  CNC(=O)Nc1ccc2c(c1)CC[C@@]21OC(=O)N(CC(=O)N2Cc3cnccc3CC[C@H]2C2CC2)C1=O [SYY-B136-2]          < 10 nM
5  Cn1cc(-c2ccc3c(c2)S(=O)(=O)C[C@]32NC(=O)N(CC(=O)N3Cc4cc(F)ccc4OC[C@H]3C(F)(F)F)C2=O)cn1 [SYY-B130]          < 10 nM
6  CNC(=O)Nc1ccc2c(c1)CC[C@]21OC(=O)N(CC(=O)N2Cc3cccnc3CC[C@H]2C2CC2)C1=O [SYY-B081-1]         < 200 nM
7  CNC(=O)Nc1ccc2c(c1)CCC21NC(=O)N(CC(=O)N2Cc3cc(F)ccc3OC[C@H]2C(F)(F)F)C1=O (stereo partly drawn) [SYY-B083]          < 20 nM
8  CNC(=O)Nc1ccc2c(c1)CC[C@]21OC(=O)N(CC(=O)N2Cc3cnccc3CC[C@H]2C2CC2)C1=O [SYY-B136-1]          < 10 nM
9  CNC(=O)Nc1ccc2c(c1)CCC21NC(=O)N(CC(=O)N2Cc3cc(F)ccc3OC[C@H]2C2CC2)C1=O (stereo partly drawn) [ZB-P-21]          < 20 nM

---

Test system: Human castration resistant prostate cancer cell line LNCaP clone FGC
Test: Cell growth inhibition experiment (CellTiter-Glo), LNCaP clone FGC
Type: cell-based
Conditions: Homo sapiens, 120 h, LNCaP clone FGC cells treated with the compound for 5 days
pIC50: −log10 of the molar value.
property.measured: pIC50

> print(dat)
                                    molecule  comparator  endpoint.result
 1  CNC(=O)Nc1ccc2c(c1)CC[C@]21OC(=O)N(CC(=O)N2Cc3ccccc3CC[C@H]2C)C1=O           =             6.77
 2  CNC(=O)Nc1ccc2c(c1)CC[C@]21OC(=O)N(CC(=O)N2Cc3ccccc3CC[C@H]2C(C)C)C1=O           =             6.73
 3  Cn1cc(-c2ccc3c(c2)CC[C@]32OC(=O)N(CC(=O)N3Cc4ccc(F)cc4CC[C@H]3C3CC3)C2=O)cn1           >             7.00
 4  CNC(=O)Nc1ccc2c(c1)CC[C@@]21OC(=O)N(CC(=O)N2Cc3ccccc3CC[C@H]2C(F)(F)F)C1=O           =             7.85
 5  CNC(=O)Nc1ccc2c(c1)CC[C@]21OC(=O)N(CC(=O)N2Cc3ccccc3CC[C@H]2C(F)(F)F)C1=O           =             7.32
 6  Cn1cc(-c2ccc3c(c2)CC[C@@]32OC(=O)N(CC(=O)N3Cc4ccc(F)cc4CC[C@H]3C3CC3)C2=O)cn1           >             7.00
 7  CNC(=O)Nc1ccc2c(c1)CC[C@]21OC(=O)N(CC(=O)N2Cc3ccc(F)cc3CC[C@H]2C(F)(F)F)C1=O           =             7.04
 8  CNC(=O)Nc1ccc2c(c1)CC[C@]21OC(=O)N(CC(=O)N2Cc3ccccc3CC[C@H]2C2CC2)C1=O           =             7.14
 9  CNC(=O)Nc1ccc2c(c1)CC[C@@]21OC(=O)N(CC(=O)N2Cc3ccc(F)cc3CC[C@H]2C2CC2)C1=O           =             7.96
10  CC(C)(N)C(=O)Nc1ccc2c(c1)CC[C@@]21OC(=O)N(CC(=O)N2Cc3ccc(F)cc3CC[C@H]2C2CC2)C1=O           =             8.22
11  CNC(=O)Nc1ccc2c(c1)CC[C@]21OC(=O)N(CC(=O)N2Cc3ccc(F)cc3CC[C@H]2C)C1=O           =             7.20
12  CNC(=O)Nc1ccc2c(c1)CC[C@@]21OC(=O)N(CC(=O)N2Cc3ccccc3CC[C@H]2C2CC2)C1=O           =             8.22
13  CCC[C@@H]1CCc2ccccc2CN1C(=O)CN1C(=O)O[C@@]2(CCc3cc(NC(=O)NC)ccc32)C1=O           =             8.40
14  CNC(=O)Nc1ccc2c(c1)CC[C@@]21OC(=O)N(CC(=O)N2Cc3ccccc3OC[C@H]2C)C1=O           =             7.11
15  NC1(C(=O)Nc2ccc3c(c2)CC[C@]32OC(=O)N(CC(=O)N3Cc4ccc(F)cc4CC[C@H]3C3CC3)C2=O)CCC1           =             7.28
16  CNC(=O)Nc1ccc2c(c1)CC[C@@]21OC(=O)N(CC(=O)N2Cc3ccc(F)cc3CC[C@H]2C(F)(F)F)C1=O           =             7.18
17  CNC(=O)Nc1ccc2c(c1)CCC21NC(=O)N(CC(=O)N2Cc3ccc(F)cc3CC[C@H]2C2CC2)C1=O (stereo partly drawn)           =             7.11
18  CNC(=O)Nc1ccc2c(c1)CC[C@@]21OC(=O)N(CC(=O)N2Cc3ccc(F)cc3CC[C@@H]2C2CC2)C1=O           =             6.88
19  CNC(=O)Nc1ccc2c(c1)CC[C@@]21OC(=O)N(CC(=O)N2Cc3cc(F)ccc3OC[C@H]2C2CC2)C1=O           =             7.89
20  CC(C)(N)C(=O)Nc1ccc2c(c1)CC[C@]21OC(=O)N(CC(=O)N2Cc3ccc(F)cc3CC[C@H]2C2CC2)C1=O           =             7.89
21  CCC[C@H]1CCc2ccccc2CN1C(=O)CN1C(=O)O[C@@]2(CCc3cc(NC(=O)NC)ccc32)C1=O           =             7.28
